Tested on: compound-treated mice
Test: Neuropharmacological assay (SmartCube): behavioral activity signature and minimal effective dose
Format: in vivo
Conditions: Mus musculus, ip, MED = dose having 50% or more total activity, read-out: Potency: minimal effective dose (MED), binned
Where a name gives a salt, the structure may show the parent alone.
Readout Label: minimal effective dose

[[record]]
compound = "CC[C@H]1OCc2ccc(C)cc2[C@@H]1N (single isomer, unassigned) [Example 177]"
result = "< 3 mg/kg"

[[record]]
compound = "C[C@@H]1OC[C@@H](N(C)C)c2ccccc21 (stereo in doubt) [Example 239, hydrochloride]"
result = "3 to 10 mg/kg"

[[record]]
compound = "Cc1ccc(C)c2c1COC[C@@H]2N (single isomer, unassigned) [Example 166]"
result = "3 to 10 mg/kg"

[[record]]
compound = "CCCN[C@@H]1c2ccccc2CO[C@@H]1C.Cl [Example 269]"
result = "3 to 10 mg/kg"

[[record]]
compound = "CCCN[C@H]1c2ccccc2CO[C@H]1C.Cl [Example 272]"
result = "3 to 10 mg/kg"

[[record]]
compound = "CC[C@@H]1OCc2cccc(Cl)c2[C@@H]1N (single isomer, unassigned) [Example 218]"
result = "< 3 mg/kg"

[[record]]
compound = "CCC[C@H]1OCc2ccccc2[C@@H]1N (single isomer, unassigned) [Example 251]"
result = "3 to 10 mg/kg"

